STUDY_TARGET: Bile acid receptor (Homo sapiens) (UniProt Q96RI1)
Sequence (Q96RI1 whole entry, looked up): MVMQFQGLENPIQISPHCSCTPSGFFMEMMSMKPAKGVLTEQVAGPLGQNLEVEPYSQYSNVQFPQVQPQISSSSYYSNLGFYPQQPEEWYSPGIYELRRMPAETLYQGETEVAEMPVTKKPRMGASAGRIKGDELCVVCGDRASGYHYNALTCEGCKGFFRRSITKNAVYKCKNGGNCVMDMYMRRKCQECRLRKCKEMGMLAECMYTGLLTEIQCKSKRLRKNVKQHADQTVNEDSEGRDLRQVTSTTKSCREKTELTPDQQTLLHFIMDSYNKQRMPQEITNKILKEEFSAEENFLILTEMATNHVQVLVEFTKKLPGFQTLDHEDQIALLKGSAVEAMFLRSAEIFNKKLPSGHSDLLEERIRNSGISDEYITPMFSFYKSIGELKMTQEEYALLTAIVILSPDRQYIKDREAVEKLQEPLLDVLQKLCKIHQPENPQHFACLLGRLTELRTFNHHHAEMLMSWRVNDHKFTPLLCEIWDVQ
ASSAY_PROTOCOL: OT_FXR_FXRSRC1_0480: Odyssey Thera (OT) 8-hour HEK293T Protein-Complementation Assay for Farnesoid X receptor/SRC-1 Co-activator (AID 2283383)
Records with an inconclusive call do not appear. The source made the active and inactive calls. Rule for the calls: active = hit-call score of the fitted dose curve at least 0.9, where 1 is the maximum; inconclusive = response in the unintended direction; inactive = score below 0.9.
QUANTITY_MEASURED: AC50

Recorded AC50, per entry:
* CC(C)c1cccc(C(C)C)c1 | inactive
* CC(C)c1cccc(C(C)C)c1NC(=O)NS(=O)(=O)c1cc(C(C)(C)O)co1 | inactive
* CC(C)COC(=O)CCCCC(=O)OCC(C)C | inactive
* CN(C)C(=O)NC1(c2ccccc2)CCN(CC[C@@]2(c3ccc(F)c(F)c3)CN(C(=O)c3ccccc3)CCO2)CC1 | inactive

Query: // fetch Bile acid receptor (Homo sapiens) (UniProt Q96RI1) AC50 for O=C(Oc1ccccc1)c1cccc(C(=O)Oc2ccccc2)c1
Response: 72 µM (active)

Query: Find AC50 (Bile acid receptor (Homo sapiens) (UniProt Q96RI1)) for the entry COC(=O)CCC(=O)OC
Response: inactive

Query: // lookup AC50 | system=Bile acid receptor (Homo sapiens) (UniProt Q96RI1) | key= CCCCC(CC)CO (configuration not stated)
Response: inactive

Query: Kindly state the measured AC50 obtained for CSc1ccc(Oc2ccc(S(N)(=O)=O)cc2CN(C)C)cc1C with Bile acid receptor (Homo sapiens) (UniProt Q96RI1).
Response: inactive

Query: Param readout= AC50; system= Bile acid receptor (Homo sapiens) (UniProt Q96RI1); entry= COc1ccc(C(=O)Nc2nc3ccccc3c(NCc3ccccc3)c2C#N)cc1 ; returns value.
Response: inactive

Query: Find AC50 (Bile acid receptor (Homo sapiens) (UniProt Q96RI1)) for the entry C=CCc1ccc(OC)c(OC)c1
Response: inactive

Query: // map CCCCCCC(C=O)=Cc1ccccc1 to recorded AC50 (system: Bile acid receptor (Homo sapiens) (UniProt Q96RI1))
Response: 50 µM (active)

Query: What value of AC50 on Bile acid receptor (Homo sapiens) (UniProt Q96RI1) does Nc1nc(Cl)nc2c1ncn2[C@H]1C[C@H](O)[C@@H](CO)O1 have?
Response: 15.2 µM (active)

Attribution: PubChem BioAssay (EPA / NIEHS)
